Hi there, I'd appreciate the recorded Plant response rating, Nightshade for every entry that follows.
# System: Nightshade
# assay.method.text: Test C preemergence
# Format: in vivo
# condition.notes: Rate 125 g/ha; scale 0 to 100, 0 no effect, 100 complete control

Q: Which Plant response rating, Nightshade value belongs to CCOc1cccc(N2CCC(n3ccc(C(C)(C)C)n3)C2=O)c1 (stereo not shown) [Compound 130] ?
Ans: 100

Q: Which Plant response rating, Nightshade reading was recorded for the compound CCC(CC)c1ccn(C2CCN(c3cccc(OC(C)C)c3)C2=O)n1 (stereo not shown) [Compound 84] ?
Ans: 50

Q: Which Plant response rating, Nightshade is listed for COc1cc(N2CCC(n3ccc(C(C)C)n3)C2=O)ccc1Cl (stereo not shown) [Compound 120] ?
Ans: 100

Q: Any idea what its Plant response rating, Nightshade is? The compound is CCOc1cc(N2CCC(n3ccc(C(C)(C)C)n3)C2=O)ccc1C (stereo not shown) [Compound 106]
Ans: 100

Q: Fill in: Plant response rating, Nightshade of CCC(C)c1ccn(C2CCN(c3cccc(OC(C)C)c3)C2=O)n1 (stereo not shown) [Compound 83] is ___
Ans: 50

Q: Entry CCC(CC)c1ccn(C2CCN(c3ccc(Cl)c(OC)c3)C2=O)n1 (stereo not shown) [Compound 118] has what Plant response rating, Nightshade?
Ans: 100

Q: What value of measured Plant response rating, Nightshade is listed for CCCC(C)c1ccn(C2OCN(c3cccc(C(F)(F)F)c3)C2=O)n1 (stereo not shown) [Compound 89] ?
Ans: 0

Q: # Plant response rating, Nightshade lookup, item COc1cc(N2CCC(n3ccc(C(C)(C)C)n3)C2=O)ccc1Br (stereo not shown) [Compound 141]
Ans: 100

Q: I would be grateful if you could share the reported Plant response rating, Nightshade for Cc1cc(C)nc(N2CCC(n3ccc(C(C)(C)C)n3)C2=O)c1 (stereo not shown) [Compound 138] .
Ans: 50

Q: Would you mind telling me what Plant response rating, Nightshade value was observed for Cc1ccc(N2CCC(n3ccc(C(C)(C)C)n3)C2=O)cc1OCCCl (stereo not shown) [Compound 109] ?
Ans: 100

Q: Request the reported Plant response rating, Nightshade associated with CCC(CC)c1ccn(C2CCN(c3ccc(Br)c(OC)c3)C2=O)n1 (stereo not shown) [Compound 143]
Ans: 100

Q: I have this compound here, CC(C)(C)c1ccn(C2CCN(c3cccc(SC(F)(F)F)c3)C2=O)n1 (stereo not shown) [Compound 93] , and I need its recorded Plant response rating, Nightshade.
Ans: 0

Q: Entry under review: CCC(C)c1ccn(C2CCN(c3ccc(Cl)c(OC)c3)C2=O)n1 (stereo not shown) [Compound 119] . Reported Plant response rating, Nightshade?
Ans: 100

Q: Using the record for CCC(C)c1ccn(C2CCN(c3ccc(C)c(OC)c3)C2=O)n1 (stereo not shown) [Compound 80] , report its Plant response rating, Nightshade.
Ans: 100

Q: Any idea what its Plant response rating, Nightshade is? The compound is CCC(C)c1ccn(C2CCN(c3ccc(Br)c(OC)c3)C2=O)n1 (stereo not shown) [Compound 142]
Ans: 100

Q: Quick check: Plant response rating, Nightshade of CCCC(C)c1ccn(C2OCN(c3cccc(OC(F)(F)F)c3)C2=O)n1 (stereo not shown) [Compound 91] ?
Ans: 0

----------
# System: velvetleaf (Abutilon theophrasti)
# assay.method.text: Test B postemergence
# Format: in vivo
# condition.notes: Rate 500 g/ha, scale 0 (no effect) to 100 (complete control), 13 to 15 days
# Method: […] At the same time, plants selected from these crop and weed species and also blackgrass (Alopecurus myosuroides), wheat (Triticum aestivum) and wild oat (Avena fatua) were treated with postemergence applications of test chemicals formulated in the same manner. […] Treated plants and controls were maintained in a greenhouse for 13 to 15 days, after which time all species were compared to controls and visually evaluated. […]
reported.endpoint: Plant response rating, Velvetleaf

Q: # query: Plant response rating, Velvetleaf of entry COc1cc(N2CCC(n3ccc(C(C)(C)C)n3)C2=O)ccc1Br (stereo not drawn) [Compound 141]
Ans: 70

Q: Consider the compound shown here: CCC(C)c1ccn(C2CCN(c3ccc(Br)c(OC)c3)C2=O)n1 (stereo not drawn) [Compound 142] What is its recorded Plant response rating, Velvetleaf?
Ans: 70

Q: Give its Plant response rating, Velvetleaf value. Item: COc1cc(N2CCC(n3ccc(C(C)C)n3)C2=O)ccc1Br (stereo not drawn) [Compound 140]
Ans: 60

Q: // query Plant response rating, Velvetleaf value for entry CCC(C)c1ccn(C2CCN(c3ccc(F)c(C(F)(F)F)c3)C2=O)n1 (stereo not drawn) [Compound 145]
Ans: 30

Q: # Plant response rating, Velvetleaf lookup, item CCC(CC)c1ccn(C2CCN(c3ccc(Br)c(OC)c3)C2=O)n1 (stereo not drawn) [Compound 143]
Ans: 70

Q: Data request, read-out Plant response rating, Velvetleaf, for Cc1cc(C)nc(N2CCC(n3ccc(C(C)(C)C)n3)C2=O)c1 (stereo not drawn) [Compound 138]
Ans: 0

----------
# System: crabgrass (Digitaria sanguinalis)
# assay.method.text: Test C postemergence
# Type: in vivo
# condition.notes: Rate 250 g/ha, scale 0 to 100 (0 no effect, 100 complete control)
Kindly state Plant response rating, Crabgrass for each of the entries shown.

Q: Would you kindly share the measured Plant response rating, Crabgrass for CCC(CC)c1ccn(C2CCN(c3ccc(C)c(OC)c3)C2=O)n1 (stereo not drawn) [Compound 81] ?
Ans: 0

Q: For the compound Cc1ccc(N2CCC(n3ccc(C(C)(C)C)n3)C2=O)cc1OCCCl (stereo not drawn) [Compound 109] , what Plant response rating, Crabgrass is on record?
Ans: 0

Q: Which value of Plant response rating, Crabgrass has been reported for CCC(CC)c1ccn(C2CCN(c3ccc(Br)c(OC)c3)C2=O)n1 (stereo not drawn) [Compound 143] in the records?
Ans: 70

----------
# Tested on: barnyardgrass (Echinochloa crus-galli)
# assay.method.text: Test B preemergence
# Type: in vivo
# condition.notes: Preemergence, Rate 500 g/ha; scale 0 to 100, 0 no effect, 100 complete control
reported.endpoint: Plant response rating, Barnyardgrass
Response field accepts a number only; no unit should be typed.

Q: Plant response rating, Barnyardgrass lookup needed for CC(C)(C)c1ccn(C2CCN(c3cccc(C(F)(F)F)c3)C2=S)n1 (stereo not drawn) [Compound 22] , thanks.
Ans: 80

Q: Find the recorded Plant response rating, Barnyardgrass belonging to CCCC(C)c1ccn(C2OCN(c3cccc(C(F)(F)F)c3)C2=O)n1 (stereo not drawn) [Compound 89] and report it.
Ans: 100

Q: State the recorded Plant response rating, Barnyardgrass for this entry: CCCC(C)c1ccn(C2CCN(c3cccc(C(F)(F)F)c3)C2=O)n1 (stereo not drawn) [Compound 100]
Ans: 100

Q: Name the reported Plant response rating, Barnyardgrass value associated with the compound CCC(CC)c1ccn(C2CCN(c3ccc(Br)c(OC)c3)C2=O)n1 (stereo not drawn) [Compound 143]
Ans: 100

Q: Form field: reported Plant response rating, Barnyardgrass of COc1cc(N2CCC(n3ccc(C(C)C)n3)C2=O)ccc1Cl (stereo not drawn) [Compound 120]
Ans: 100

Q: Look up Plant response rating, Barnyardgrass: CC(C)(C)c1ccn(C2C(=O)N(c3cccc(C(F)(F)F)c3)C[S+]2[O-])n1 (stereo not drawn) [Compound 29]
Ans: 20

Q: I am curious: what Plant response rating, Barnyardgrass value has been reported for CCC(CC)c1ccn(C2CCN(c3cccc(OC(C)C)c3)C2=O)n1 (stereo not drawn) [Compound 84] ?
Ans: 100

Q: So what's the measured Plant response rating, Barnyardgrass for this one? Cc1ccc(N2CCC(n3ccc(C(C)(C)C)n3)C2=O)cc1OC(C)C (stereo not drawn) [Compound 110]
Ans: 0

Q: Would you kindly share the measured Plant response rating, Barnyardgrass for CC(C)(C)c1ccn(C2CCN(c3cc(Cl)cc(Cl)c3)C2=O)n1 (stereo not drawn) [Compound 55] ?
Ans: 0

Q: What value of measured Plant response rating, Barnyardgrass is listed for CC(C)c1ccn(C2SCN(c3cccc(OC(F)(F)F)c3)C2=O)n1 (stereo not drawn) [Compound 31] ?
Ans: 100

Q: Form field: reported Plant response rating, Barnyardgrass of COc1ccn(C2CCN(c3cccc(C(F)(F)F)c3)C2=O)n1 (stereo not drawn) [Compound 60]
Ans: 0

Q: Give its Plant response rating, Barnyardgrass value. Item: O=C1C(n2ccc(C3CCC3)n2)SCN1c1cccc(OC(F)(F)F)c1 (stereo not drawn) [Compound 38]
Ans: 100

Q: Fill blank: measured Plant response rating, Barnyardgrass of the compound COc1cc(N2CCC(n3ccc(C(C)(C)C)n3)C2=O)ccc1Cl (stereo not drawn) [Compound 117] is ____.
Ans: 100

Q: Query: Plant response rating, Barnyardgrass; subject: CC(C)(C)c1ccn(C2CCN(c3cccc(OC(F)(F)F)c3)C2=O)n1 (stereo not drawn) [Compound 49]
Ans: 100

Q: # Plant response rating, Barnyardgrass lookup, item CCC(C)c1ccn(C2OCN(c3cccc(OC(F)(F)F)c3)C2=O)n1 (stereo not drawn) [Compound 67]
Ans: 100

Q: GET /values?readout=Plant response rating, Barnyardgrass&item= CC(C)(C)c1nn(C2CCN(c3cccc(C(F)(F)F)c3)C2=O)cc1Cl (stereo not drawn) [Compound 14]
Ans: 0

Q: Field request: Plant response rating, Barnyardgrass | item: CC(C)(C)c1ccn(C2CCN(c3cccc(S(C)(=O)=O)c3)C2=O)n1 (stereo not drawn) [Compound 102]
Ans: 0

Q: Which Plant response rating, Barnyardgrass value is on record for CC(C)Oc1ccn(C2CCN(c3cccc(C(F)(F)F)c3)C2=O)n1 (stereo not drawn) [Compound 59] ?
Ans: 90

Where these numbers come from: patent US7138361B2
